# Assay remarks: Part A single-dose pharmacokinetics of long-acting setmelanotide formulation in healthy obese subjects
# Format: in vivo, human
# Cond: human, plasma; single SC dose 2.5 mg
Readout type: AUC(0-inf) (ng·h/mL)
Write down the numeric answer in ng·h/mL and omit the unit.

Problem: Could you please provide reported AUC(0-inf) for CC(=O)N[C@@H](CCCNC(=N)N)C(=O)N[C@H]1CSSC[C@@H](C(N)=O)NC(=O)[C@H](Cc2c[nH]c3ccccc23)NC(=O)[C@H](CCCNC(=N)N)NC(=O)[C@@H](Cc2ccccc2)NC(=O)[C@H](Cc2c[nH]cn2)NC(=O)[C@@H](C)NC1=O [setmelanotide] ? Thanks!
Result: 92.9
